Data origin: the kinase profiling compilation of Christmann-Franck et al. (2016)

# assay.target: TTK (human)
# assay.explanation: radiometric filter-binding kinase assay, Kinase HotSpot
# details: compound 0.5 µM; ATP 10 µM
Binary classification by residual activity, with 90% as an inclusive lower bound for satisfied; all other cases are not satisfied.

CC(C)[C@H](CO)Nc1nc(Nc2cccc(Cl)c2)c2ncn(C(C)C)c2n1; satisfied

// inclusive: residual activity at least 90%? input: COc1ccc(-c2cnc3c(-c4ccsc4)cnn3c2)cc1
satisfied

// inclusive: residual activity at least 90%? input: Nc1nc(Nc2ccc(S(N)(=O)=O)cc2)nn1C(=O)c1c(F)cccc1F
not satisfied

// inclusive: residual activity at least 90%? input: O=c1cc(-c2cccc3c2Sc2ccccc2S3)oc(N2CCOCC2)c1
satisfied

----------
# assay.target: STK10 (human) (UniProt O94804)
# Sequence (O94804 whole entry, looked up): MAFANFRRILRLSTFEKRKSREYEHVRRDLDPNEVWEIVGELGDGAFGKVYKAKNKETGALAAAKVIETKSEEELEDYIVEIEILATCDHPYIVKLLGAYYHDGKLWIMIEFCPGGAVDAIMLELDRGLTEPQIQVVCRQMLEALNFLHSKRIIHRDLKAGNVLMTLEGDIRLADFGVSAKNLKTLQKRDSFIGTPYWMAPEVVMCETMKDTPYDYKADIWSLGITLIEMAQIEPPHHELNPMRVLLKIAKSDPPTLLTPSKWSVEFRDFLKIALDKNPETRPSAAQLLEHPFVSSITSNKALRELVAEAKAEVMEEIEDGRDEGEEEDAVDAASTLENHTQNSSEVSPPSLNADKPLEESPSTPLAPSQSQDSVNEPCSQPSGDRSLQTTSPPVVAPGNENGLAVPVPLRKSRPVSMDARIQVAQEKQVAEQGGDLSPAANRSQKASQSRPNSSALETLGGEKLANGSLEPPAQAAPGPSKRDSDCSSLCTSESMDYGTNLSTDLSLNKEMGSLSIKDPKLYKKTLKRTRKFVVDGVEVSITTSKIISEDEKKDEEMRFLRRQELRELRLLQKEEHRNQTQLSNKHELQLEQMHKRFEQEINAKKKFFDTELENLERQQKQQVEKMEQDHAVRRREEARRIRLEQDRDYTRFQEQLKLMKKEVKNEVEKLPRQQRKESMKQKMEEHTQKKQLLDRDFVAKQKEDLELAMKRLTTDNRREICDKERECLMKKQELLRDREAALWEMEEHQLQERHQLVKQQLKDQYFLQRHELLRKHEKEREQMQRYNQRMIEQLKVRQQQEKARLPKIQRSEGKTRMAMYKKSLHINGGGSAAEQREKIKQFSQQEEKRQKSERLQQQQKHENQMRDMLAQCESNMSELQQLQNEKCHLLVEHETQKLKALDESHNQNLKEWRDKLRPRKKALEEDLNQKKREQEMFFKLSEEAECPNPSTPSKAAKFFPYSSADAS
# assay.explanation: radiometric filter-binding kinase assay, Kinase HotSpot
# details: compound 0.5 µM; ATP 10 µM
Binary classification by residual activity, with 80% as an inclusive lower bound for Criterion met; all other cases are Criterion not met.

// inclusive: residual activity at least 80%? input: CC(C)n1cnc2c(Nc3cccc(Cl)c3)nc(NCCO)nc21
Criterion met

// inclusive: residual activity at least 80%? input: CC(C)(C)c1nc2c3ccc(F)cc3c3c(=O)[nH]ccc3c2[nH]1
Criterion not met

// inclusive: residual activity at least 80%? input: O=c1cc(-c2cccc3c2Sc2ccccc2S3)oc(N2CCOCC2)c1
Criterion met

// inclusive: residual activity at least 80%? input: Nc1nc(Nc2ccc(S(N)(=O)=O)cc2)nn1C(=O)c1c(F)cccc1F
Criterion not met

// inclusive: residual activity at least 80%? input: NC(=O)c1ccc(N(C(N)=O)c2c(F)cccc2F)nc1-c1ccc(F)cc1F
Criterion met

// inclusive: residual activity at least 80%? input: O=c1cc(N2CCNCC2)oc2c(-c3ccccc3)cccc12
Criterion met

// inclusive: residual activity at least 80%? input: CCN1/C(=C/C(C)=O)Sc2ccc(OC)cc21
Criterion met

// inclusive: residual activity at least 80%? input: COc1cc2ncnc(Nc3ccc(F)c(Cl)c3)c2cc1OCCCN1CCOCC1
Criterion not met

// inclusive: residual activity at least 80%? input: CSc1nc(-c2ccc(F)cc2)c(-c2ccnc(NC(C)c3ccccc3)c2)[nH]1 (stereo unspecified)
Criterion met

----------
# assay.target: MAP4K5 (human) (UniProt Q9Y4K4)
# Sequence (Q9Y4K4 whole entry, looked up): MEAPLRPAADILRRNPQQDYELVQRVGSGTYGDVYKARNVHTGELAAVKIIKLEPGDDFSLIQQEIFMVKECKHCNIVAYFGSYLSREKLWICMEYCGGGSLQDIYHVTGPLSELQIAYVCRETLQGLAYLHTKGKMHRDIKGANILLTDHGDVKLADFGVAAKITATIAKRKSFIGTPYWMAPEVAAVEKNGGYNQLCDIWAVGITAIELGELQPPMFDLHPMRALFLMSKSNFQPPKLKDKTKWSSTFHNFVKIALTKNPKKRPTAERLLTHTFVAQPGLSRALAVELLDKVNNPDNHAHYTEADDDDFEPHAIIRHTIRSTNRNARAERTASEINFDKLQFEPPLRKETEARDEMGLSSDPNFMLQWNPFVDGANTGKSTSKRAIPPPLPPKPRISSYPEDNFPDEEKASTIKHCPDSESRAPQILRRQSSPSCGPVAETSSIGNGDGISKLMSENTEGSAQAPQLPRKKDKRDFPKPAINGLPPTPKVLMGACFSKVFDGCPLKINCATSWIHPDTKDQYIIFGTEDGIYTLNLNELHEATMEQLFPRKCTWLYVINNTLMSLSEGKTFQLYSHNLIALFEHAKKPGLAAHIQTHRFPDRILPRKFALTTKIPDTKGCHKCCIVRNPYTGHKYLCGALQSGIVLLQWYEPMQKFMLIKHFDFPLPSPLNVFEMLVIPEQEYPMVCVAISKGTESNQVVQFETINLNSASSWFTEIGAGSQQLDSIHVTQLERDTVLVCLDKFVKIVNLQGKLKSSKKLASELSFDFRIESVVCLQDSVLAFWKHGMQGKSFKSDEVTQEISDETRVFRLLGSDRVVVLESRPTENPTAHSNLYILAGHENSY
# assay.explanation: radiometric filter-binding kinase assay, Kinase HotSpot
# details: compound 0.5 µM; ATP 10 µM
readout: residual activity (%)
The response must be a number in % with no trailing unit.

Example entries begin here.
CC(C)[C@H](CO)Nc1nc(Nc2cccc(Cl)c2)c2ncn(C(C)C)c2n1; 97.5
O=c1cc(-c2cccc3c2Sc2ccccc2S3)oc(N2CCOCC2)c1; 93.6
Cc1ccc(NC(=O)c2ccc(CN3CCN(C)CC3)cc2)cc1Nc1nc(-c2cccnc2)cs1; 97

Could you please provide reported residual activity for CS(=O)c1ccc(-c2nc(-c3ccc(F)cc3)c(-c3ccncc3)[nH]2)cc1 (stereo not given) ? Thanks!
99.5

Could you please provide reported residual activity for CC(C)n1cnc2c(Nc3cccc(Cl)c3)nc(NCCO)nc21 ? Thanks!
81.5

Could you please provide reported residual activity for NC(=O)c1ccc(N(C(N)=O)c2c(F)cccc2F)nc1-c1ccc(F)cc1F ? Thanks!
98.3

Could you please provide reported residual activity for O=C1Nc2ccccc2/C1=C\c1c(Cl)[nH]c2ccccc12 ? Thanks!
95

Could you please provide reported residual activity for COc1cc2ncnc(Nc3ccc(F)c(Cl)c3)c2cc1OCCCN1CCOCC1 ? Thanks!
80

Could you please provide reported residual activity for CC(C)(C)c1nc2c3ccc(F)cc3c3c(=O)[nH]ccc3c2[nH]1 ? Thanks!
65.8

Could you please provide reported residual activity for CSc1nc(-c2ccc(F)cc2)c(-c2ccnc(NC(C)c3ccccc3)c2)[nH]1 (stereo not given) ? Thanks!
85.6
